Target: GppNHp loaded KRAS4b(1-169) H95C/C118S mutant (Homo sapiens, UniProt P01116, C118S/H95C)
Construct: loaded KRAS4b(1-169) H95C/C118S mutant
Test: MALDI-TOF percentage labeling of C95, GppNHp-loaded protein
Assay type: binding
Details: 24 h incubation
MEASUREMENT_TYPE: level of covalent labeling to C95 (percent of labeling), GppNHp, 24 h (%)

>>> reported("CC(C)C[C@H](NC(=O)c1cn(C)c2ccccc12)C(=O)[C@@]1(C)CO1")
0
>>> reported("CC(C)Cc1ccc(C(C)C(=O)NCc2cn(C[C@@H]3CO3)nn2)cc1 (some centres unmarked)")
17
>>> reported("COc1ccc(Cl)cc1C(=O)N[C@H]1COC1=O")
78
>>> reported("Cn1nc(C(=O)NCc2cn(C[C@H]3CO3)nn2)c2ccccc21")
0
>>> reported("Cc1ccc(S(=O)(=O)c2cn(CC3OC3(C)C)nn2)cc1 (centres unmarked)")
0
>>> reported("CC(=O)Oc1ccccc1C(=O)NCc1cn(C[C@@H]2CO2)nn1")
14
>>> reported("Cn1cc(C(=O)NCc2cn(C[C@@H]3CO3)nn2)c2cc(Br)ccc21")
22
>>> reported("O=C(NCc1cn(C[C@@H]2CO2)nn1)c1c[nH]c2ccccc12")
25
>>> reported("COc1ccc(Cl)cc1C(=O)N1CCCC(C(=O)N[C@@H](CC(C)C)C(=O)[C@@]2(C)CO2)C1 (some centres unmarked)")
0
>>> reported("O=C(NCc1cn(C[C@H]2CO2)nn1)c1c[nH]c2ccccc12")
11
>>> reported("Cn1nc(C(=O)NCc2cn(C[C@@H]3CO3)nn2)c2cc(Br)ccc21")
19

====

In this section, each of the compounds is paired with its reported level of covalent labeling to C95 (percent of labeling), GDP, 3 h.
Target: GDP loaded KRAS4b(1-169) H95C/C118S mutant (Homo sapiens, UniProt P01116, C118S/H95C)
Construct: loaded KRAS4b(1-169) H95C/C118S mutant
Test: MALDI-TOF percentage labeling of C95, GDP-loaded protein
Assay type: binding
Details: 3 h incubation
MEASUREMENT_TYPE: level of covalent labeling to C95 (percent of labeling), GDP, 3 h (%)

>>> reported("Cn1nc(C(=O)NCc2cn(C[C@H]3CO3)nn2)c2cc(Br)ccc21")
3
>>> reported("CC(=O)Oc1ccccc1C(=O)NCc1cn(C[C@@H]2CO2)nn1")
5
>>> reported("O=C(NCc1cn(C[C@@H]2CO2)nn1)c1c[nH]c2ccccc12")
7
>>> reported("Cc1ccc(S(=O)(=O)c2cn(CC3OC3(C)C)nn2)cc1 (centres unmarked)")
0
>>> reported("Cn1nc(C(=O)NCc2cn(C[C@H]3CO3)nn2)c2ccccc21")
0
>>> reported("O=C(NCc1cn(C[C@H]2CO2)nn1)c1c[nH]c2ccccc12")
0
>>> reported("CC(C)C[C@H](NC(=O)c1cn(C)c2ccc(Br)cc12)C(=O)[C@@]1(C)CO1")
0
>>> reported("Cn1nc(C(=O)NCc2cn(C[C@@H]3CO3)nn2)c2cc(Br)ccc21")
23
>>> reported("CC(C)C[C@H](NC(=O)c1cn(C)c2ccccc12)C(=O)[C@@]1(C)CO1")
0
>>> reported("Cn1cc(C(=O)NCc2cn(C[C@@H]3CO3)nn2)c2cc(Br)ccc21")
19
>>> reported("CC(C)Cc1ccc(C(C)C(=O)NCc2cn(C[C@@H]3CO3)nn2)cc1 (some centres unmarked)")
36
>>> reported("COc1ccc(Cl)cc1C(=O)N1CCCC(C(=O)N[C@@H](CC(C)C)C(=O)[C@@]2(C)CO2)C1 (some centres unmarked)")
0
>>> reported("COc1ccc(Cl)cc1C(=O)N[C@H]1COC1=O")
87
>>> reported("Cn1nc(C(=O)NCc2cn(C[C@@H]3CO3)nn2)c2ccccc21 [drawing 514]")
3

====

In this section, each of the compounds is paired with its reported level of covalent labeling to C95 (percent of labeling), GppNHp, 3 h.
Target: GppNHp loaded KRAS4b(1-169) H95C/C118S mutant (Homo sapiens, UniProt P01116, C118S/H95C)
Construct: loaded KRAS4b(1-169) H95C/C118S mutant
Experiment: MALDI-TOF percentage labeling of C95, GppNHp-loaded protein
Assay type: binding
Details: 3 h incubation
MEASUREMENT_TYPE: level of covalent labeling to C95 (percent of labeling), GppNHp, 3 h (%)

>>> reported("COc1ccc(Cl)cc1C(=O)N[C@H]1COC1=O")
76
>>> reported("CC(=O)Oc1ccccc1C(=O)NCc1cn(C[C@@H]2CO2)nn1")
2
>>> reported("CC(C)C[C@H](NC(=O)c1cn(C)c2ccccc12)C(=O)[C@@]1(C)CO1")
0
>>> reported("CC(C)Cc1ccc(C(C)C(=O)NCc2cn(C[C@@H]3CO3)nn2)cc1 (stereo partly shown)")
0

====

In this section, each of the compounds is paired with its reported level of covalent labeling to C95 (percent of labeling), GppNHp, 6 h.
Target: GppNHp loaded KRAS4b(1-169) H95C/C118S mutant (Homo sapiens, UniProt P01116, C118S/H95C)
Construct: loaded KRAS4b(1-169) H95C/C118S mutant
Assay: MALDI-TOF percentage labeling of C95, GppNHp-loaded protein
Assay type: binding
Settings: 6 h incubation
MEASUREMENT_TYPE: level of covalent labeling to C95 (percent of labeling), GppNHp, 6 h (%)

>>> reported("Cn1nc(C(=O)NCc2cn(C[C@@H]3CO3)nn2)c2cc(Br)ccc21")
4
>>> reported("CC(C)C[C@H](NC(=O)c1cn(C)c2ccccc12)C(=O)[C@@]1(C)CO1")
0
>>> reported("O=C(NCc1cn(C[C@H]2CO2)nn1)c1c[nH]c2ccccc12")
2
>>> reported("Cn1cc(C(=O)NCc2cn(C[C@@H]3CO3)nn2)c2cc(Br)ccc21")
4
>>> reported("CC(=O)Oc1ccccc1C(=O)NCc1cn(C[C@@H]2CO2)nn1")
3
>>> reported("Cn1nc(C(=O)NCc2cn(C[C@@H]3CO3)nn2)c2ccccc21 [drawing 514]")
3
>>> reported("Cn1nc(C(=O)NCc2cn(C[C@H]3CO3)nn2)c2ccccc21")
0
>>> reported("CC(C)C[C@H](NC(=O)c1cn(C)c2ccc(Br)cc12)C(=O)[C@@]1(C)CO1")
0
>>> reported("Cc1ccc(S(=O)(=O)c2cn(CC3OC3(C)C)nn2)cc1 (stereo not shown)")
0
>>> reported("CC(C)Cc1ccc(C(C)C(=O)NCc2cn(C[C@@H]3CO3)nn2)cc1 (stereo partly shown)")
2

====

Molecular target: GDP loaded KRAS4b(1-169) H95C/C118S mutant (Homo sapiens, UniProt P01116, C118S/H95C)
Construct: loaded KRAS4b(1-169) H95C/C118S mutant
Test: MALDI-TOF percentage labeling of C95, GDP-loaded protein
Assay type: binding
Details: 24 h incubation
In this section, each of the compounds is paired with its reported level of covalent labeling to C95 (percent of labeling), GDP, 24 h.
MEASUREMENT_TYPE: level of covalent labeling to C95 (percent of labeling), GDP, 24 h (%)

>>> reported("Cc1ccc(S(=O)(=O)c2cn(CC3OC3(C)C)nn2)cc1 (centres unmarked)")
0
>>> reported("Cn1nc(C(=O)NCc2cn(C[C@@H]3CO3)nn2)c2ccccc21 [drawing 514]")
38
>>> reported("Cn1nc(C(=O)NCc2cn(C[C@H]3CO3)nn2)c2ccccc21")
0
>>> reported("COc1ccc(Cl)cc1C(=O)N[C@H]1COC1=O")
89
>>> reported("Cn1cc(C(=O)NCc2cn(C[C@@H]3CO3)nn2)c2cc(Br)ccc21")
91
>>> reported("CC(C)C[C@H](NC(=O)c1cn(C)c2ccccc12)C(=O)[C@@]1(C)CO1")
0
>>> reported("O=C(NCc1cn(C[C@@H]2CO2)nn1)c1c[nH]c2ccccc12")
72
>>> reported("Cn1nc(C(=O)NCc2cn(C[C@H]3CO3)nn2)c2cc(Br)ccc21")
49
>>> reported("CC(C)Cc1ccc(C(C)C(=O)NCc2cn(C[C@@H]3CO3)nn2)cc1 (some centres unmarked)")
98
>>> reported("CC(C)C[C@H](NC(=O)c1cn(C)c2ccc(Br)cc12)C(=O)[C@@]1(C)CO1")
0
>>> reported("COc1ccc(Cl)cc1C(=O)N1CCCC(C(=O)N[C@@H](CC(C)C)C(=O)[C@@]2(C)CO2)C1 (some centres unmarked)")
0
>>> reported("CC(=O)Oc1ccccc1C(=O)NCc1cn(C[C@@H]2CO2)nn1")
45
>>> reported("Cn1nc(C(=O)NCc2cn(C[C@@H]3CO3)nn2)c2cc(Br)ccc21")
96
>>> reported("O=C(NCc1cn(C[C@H]2CO2)nn1)c1c[nH]c2ccccc12")
31

Cited source for all entries: patent US11358940B2
